- target-entity: MMP-13CD (catalytic domain of collagenase-3) (Homo sapiens, UniProt P45452)
- test-protocol: Thiopeptolide substrate hydrolysis inhibition assay, MMP-13CD
- Format: biochemical
- assay-conditions: Table I; thiopeptolide substrate, HEPES pH 7.0, 22° C.; read-out: MMP-13CD IC50
- Description: Thiopeptolide substrates show virtually no decomposition or hydrolysis at or below neutral pH in the absence of a matrix metalloproteinase enzyme.
Some molecules, each annotated with its measured IC50.
I only need the number, in µM, no unit after it.

Study these solved cases before continuing.
{"columns": ["molecule", "IC50 [µM]"],
 "data": [
  ["COc1cc(COC(=O)c2cc3c(=O)n(Cc4ccccc4)c(=O)n(C)c3s2)cc(OC)c1", 30],
  ["COc1cccc(CNC(=O)c2cc3c(=O)n(CCSc4ccccc4)c(=O)n(C)c3s2)c1", 1.9],
  ["Cn1c(=O)n(Cc2ccccc2)c(=O)c2cc(C(=O)OCc3cc4ccccc4s3)sc21", 3.1],
  ["COc1cccc(CNC(=O)c2cc3c(=O)n(CCC(=O)c4ccccc4)c(=O)n(C)c3s2)c1", 1.4],
  ["Cn1c(=O)n(Cc2ccc(C(=O)O)cc2)c(=O)c2cc(C(=O)NCc3ccc(S(C)(=O)=O)cc3)sc21", 3.9],
  ["Cn1c(=O)n(Cc2ccccc2)c(=O)c2cc(C(=O)OCC3CCCN3)sc21 (stereo not drawn)", 17]
]}

Inquiry: Any idea what its IC50 is? The molecule is CC(=O)OCCn1c(=O)c2cc(C(=O)OCc3ccccc3)sc2n(C)c1=O
Reply text: 1.3

Inquiry: Again, but for COc1ccc(CNC(=O)c2cc3c(=O)n(CCc4cccc5ccccc45)c(=O)n(C)c3s2)cc1
Reply text: 30

Inquiry: Again, but for COc1ccc(CNC(=O)c2cc3c(=O)n(CC#Cc4ccccc4)c(=O)n(C)c3s2)cc1
Reply text: 0.007

Inquiry: Again, but for COc1cccc(CNC(=O)c2cc3c(=O)n(Cc4ccc(NC(C)=O)cc4)c(=O)n(C)c3s2)c1
Reply text: 0.0535

Inquiry: Again, but for Cc1ccc(CNC(=O)c2cc3c(=O)n(Cc4ccccc4)c(=O)n(C)c3s2)cc1
Reply text: 1.7

Inquiry: Again, but for COc1ccc(CNC(=O)c2cc3c(=O)n(Cc4ccccc4)c(=O)n(C)c3s2)cc1
Reply text: 0.12

Inquiry: Again, but for CC#CCn1c(=O)c2cc(C(=O)OCc3ccccc3)sc2n(C)c1=O
Reply text: 0.019

Inquiry: Again, but for CCC#CCn1c(=O)c2cc(C(=O)NCc3cccc(OC)c3)sc2n(C)c1=O
Reply text: 0.12

Inquiry: Again, but for CCCCC(CC)Cn1c(=O)c2cc(C(=O)NCc3ccc(OC)cc3)sc2n(C)c1=O (stereo not drawn)
Reply text: 27.5

Inquiry: Again, but for C/C=C/Cn1c(=O)c2cc(C(=O)NCc3ccc(OC)cc3)sc2n(C)c1=O
Reply text: 0.27

Inquiry: Again, but for C#CCn1c(=O)c2cc(C(=O)OCc3ccccc3)sc2n(C)c1=O
Reply text: 0.097

Entry source: patent US20030004172A1
